Biological target: T1, human CD277 (human, UniProt O00481 30-254, limits assumed)
T1 construct: The SPR method text speaks of 'purified recombinant his tagged human CD137', apparently an error for CD277; also called BTN3A1; human CD277 polypeptides
T1 sequence (O00481 30-254 limits assumed): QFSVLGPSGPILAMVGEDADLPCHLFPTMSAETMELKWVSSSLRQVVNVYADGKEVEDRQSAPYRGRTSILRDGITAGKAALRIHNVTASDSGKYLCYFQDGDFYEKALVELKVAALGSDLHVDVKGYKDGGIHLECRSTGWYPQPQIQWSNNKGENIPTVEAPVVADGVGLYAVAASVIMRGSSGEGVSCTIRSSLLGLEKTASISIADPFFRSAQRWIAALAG
Test: SPRi (Carterra MX96), antibody printed on chip, his-tagged antigen injected, 1:1 fit
measured_property: kon (M⁻¹ s⁻¹)
Provide only the numeric value, understood in M⁻¹ s⁻¹.

Known results for binders:
anti-CD277 antibody mAb5 (antibody, human IgG1, kappa, N297A, V domains shown) VH: QVQLVQSGAEVKKPGASVKVSCKASGYTFSNYYIHWVRQAPGQGLEWMGWINANSGGTKYAQKFQGRVTMTRDTSISTAYMELSRLRSDDTAVYYCARRHSDMIGYYYGMDVWGQGTTVTVSS VL: DIQMTQSPSSVSASVGDRVTITCRASQGISSWLAWYQQKPGKAPKLLIYAASSLQSGVPSRFSGSGSGTDFTLTISSLQPEDFATYYCQQATDFPPTFGGGTKVEIKR : 19300
anti-CD277 antibody mAb11 (antibody, human IgG1, kappa, N297A, V domains shown) VH: QVQLVQSGAEVKKPGASVKVSCKASGYTFSNYYIHWVRQAPGQGLEWMGWINANSGGTKYAQKFQGRVTMTRDTSISTAYMELSRLRSDDTAVYYCARRHSDMIGYYYGMDVWGQGTTVTVSS VL: DIQMTQSPSSLSASVGDRVTITCRASQSISSYLNWYQQKPGKAPKLLIYAASSLQSGVPSRFSGSGSGTDFTLTISSLQPEDFATYYCQQANTFPPTFGQGTRLEIKR : 18200
anti-CD277 antibody mAb3 (antibody, human IgG1, kappa, N297A, V domains shown) VH: QVQLVQSGAEVKKPGASVKVSCKASGYTFNGYYIHWVRQAPGQGLEWMGWINSNSGGTKYAQKFQGRVTMTRDTSISTAYMELSRLRSDDTAVYYCARRHSDMIGYYYGMDVWGQGTTVTVSS VL: DIQMTQSPSSVSASVGDRVTITCRASQGISSWLAWYQQKPGKAPKLLIYAASSLQSGVPSRFSGSGSGTDFTLTISSLQPEDFATYYCQQATDFPPTFGGGTKVEIKR : 18100
anti-CD277 antibody mAb4 (antibody, human IgG1, kappa, N297A, V domains shown) VH: QVQLVQSGAEVKKPGASVKVSCKASGYTFTNYYMHWVRQAPGQGLEWMGWINVNSGVTKYAQKFQGRVTMTRDTSISTAYMELSRLRSDDTAVYYCARRHSDMIGYYYGMDVWGQGTTVTVSS VL: DIQMTQSPSSVSASVGDRVTITCRASQGISSWLAWYQQKPGKAPKLLIYAASSLQSGVPSRFSGSGSGTDFTLTISSLQPEDFATYYCQQATDFPPTFGGGTKVEIKR : 18800
anti-CD277 antibody mAb10 (antibody, human IgG1, kappa, N297A, V domains shown) VH: QVQLVQSGAEVKKPGASVKVSCKASGYTFTNYYMHWVRQAPGQGLEWMGWINVNSGVTKYAQKFQGRVTMTRDTSISTAYMELSRLRSDDTAVYYCARRHSDMIGYYYGMDVWGQGTTVTVSS VL: DIQMTQSPSSLSASVGDRVTITCRASQSISSYLNWYQQKPGKAPKLLIYAASSLQSGVPSRFSGSGSGTDFTLTISSLQPEDFATYYCQQANTFPPTFGQGTRLEIKR : 17100

Look at this binder and give its reported kon. anti-CD277 antibody mAb2 (antibody, human IgG1, kappa, N297A, V domains shown) VH: QVQLVQSGAEVKKPGASVKVSCKASGYTFSNYYIHWVRQAPGQGLEWMGWINANSGGTKYAQKFQGRVTMTRDTSISTAYMELSRLRSDDTAVYYCARRHSDMIGYYYGMDVWGQGTTVTVSS VL: DIQMTQSPSSLSASVGDRVTITCRASQSIDRYLNWYQQKPGKAPKLLIYAASRLQSGVPSRFSGSGSGTDFTLTISSLQPEDFATYYCQQANSFPPTFGQGTRLEIKR 18300

Look at this binder and give its reported kon. anti-CD277 antibody mAb9 (antibody, V domains shown) VH: QVQLVQSGAEVKKPGASVKVSCKASGYTFNGYYIHWVRQAPGQGLEWMGWINSNSGGTKYAQKFQGRVTMTRDTSISTAYMELSRLRSDDTAVYYCARRHSDMIGYYYGMDVWGQGTTVTVSS VL: DIQLTQSPSSLSASVGDRVTITCRASQSISSYLNWYQQKPGKVPKLLIYAASTLQSGVPSRFSGSGSGTDFTLTISSLQPEDFATYSCQQTNSFPPTFGQGTKVEIKR 14200
